Data credit: patent US20040170955A1

# MEASURED ON: T1, GST-β5cyto (GST fusion protein of the β5 integrin cytoplasmic domain) (UniProt P18084 743-799)
# T1 construct: domain: cytoplasmic domain; Recombinant GST fusion coated on microtiter wells; also called β5-GST; β5 cytoplasmic domain fusion protein; not shown: glutathione S-transferase (GST) fusion partner
# T1 sequence (looked up): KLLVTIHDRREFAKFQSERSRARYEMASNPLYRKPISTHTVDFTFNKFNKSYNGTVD
# PROTOCOL DETAILS: phage binding, colonies from β5-GST wells / BSA wells
Ends that are not written are not given here.
MEASURED PARAMETER: β5/BSA Ratio
Kindly write the number and append the unit.

Check out these entries, answers already filled in.
[[record]]
binder = "KQFSYRYLL (whole phage tested) [phage displaying KQFSYRYLL (SEQ ID NO:111)]"
reported_value = "8 ratio"

[[record]]
binder = "CEPYWDGWFC (cysteine pairing not given here; also: displayed on phage, whole phage tested) [phage displaying CEPYWDGWFC (SEQ ID NO:106)]"
reported_value = "400 ratio"

[[record]]
binder = "CKEDGWLMTC (whole phage tested) [phage displaying CKEDGWLMTC (SEQ ID NO:107)]"
reported_value = "836 ratio"


Could you now look at the following binder, please?
The reported β5/BSA Ratio of the binder VVISYSMPD (whole phage tested) [phage displaying VVISYSMPD (SEQ ID NO:112)] was 28 ratio
